Measured EC50, listed per entry.
test: Luminescence Cell-Based Dose Confirmation HTS to Identify Inhibitors of Platelet Dense Granule Release. [Related pubchem assays: 1663 (Primary HTS), 1678 (Summary of Project)]; type: functional
The source made the active and inactive calls.
measured_property: EC50

substance_smiles: O=C1COc2ccc(C(=O)COC(=O)c3cc(S(=O)(=O)N4CCOCC4)ccc3F)cc2N1
value_measured: 22.9 µM (active)

substance_smiles: COc1ccc(C(=O)O/N=C(\N)c2ccccc2)cc1
value_measured: 0.921 µM (active)

substance_smiles: CCN(CC)c1ccc(/C=N/NC(=O)c2ccoc2C)c(O)c1
value_measured: 2.06 µM (active)

substance_smiles: CCN=C(S)NNC(=O)c1cc(-c2cccc(OC)c2)nc2ccccc12
value_measured: 7.86 µM (active)

* * *

molecular target: Polyadenylate-binding protein 1 (Homo sapiens, UniProt P11940); assay: PABP1 MLLE–PAM2 binding inhibitor potency, dose response, biochemical, fluorescence polarization, FITC-PAM2 peptide (AID 602259); type: functional; conditions: read-out: IC50_Mean
Sequence (P11940 whole entry): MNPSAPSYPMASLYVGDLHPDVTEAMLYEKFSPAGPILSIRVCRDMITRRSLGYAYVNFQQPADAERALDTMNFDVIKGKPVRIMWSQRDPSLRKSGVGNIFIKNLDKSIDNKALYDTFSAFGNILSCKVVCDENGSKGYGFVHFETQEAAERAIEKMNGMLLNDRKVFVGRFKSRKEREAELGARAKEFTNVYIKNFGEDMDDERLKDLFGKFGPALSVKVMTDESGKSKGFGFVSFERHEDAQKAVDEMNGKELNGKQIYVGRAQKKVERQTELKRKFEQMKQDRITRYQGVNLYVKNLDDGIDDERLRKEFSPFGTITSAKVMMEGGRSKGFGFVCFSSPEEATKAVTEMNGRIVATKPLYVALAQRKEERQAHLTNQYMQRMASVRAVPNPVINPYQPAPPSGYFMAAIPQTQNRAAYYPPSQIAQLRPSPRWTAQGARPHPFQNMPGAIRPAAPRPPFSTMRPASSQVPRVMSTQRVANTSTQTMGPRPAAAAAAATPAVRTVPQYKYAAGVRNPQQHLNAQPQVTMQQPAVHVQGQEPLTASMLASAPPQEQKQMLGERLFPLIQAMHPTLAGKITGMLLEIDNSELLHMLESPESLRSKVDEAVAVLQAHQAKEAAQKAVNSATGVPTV
The source made the active and inactive calls.
Measured IC50, listed per entry.
measured_property: IC50

compound: O=C(NN=Cc1sc(=O)[n-]c1-[n+]1ccc(-c2ccncc2)cc1)c1ccccc1O
value_measured: 42.7 µM (inactive)
--
compound: Cc1noc(C)c1-c1csc(N2CCC(C(N)=O)CC2)n1
value_measured: > 66 µM (inactive)
--
compound: CCC(c1nnnn1Cc1ccc(F)cc1)N(CCCO)Cc1cc2cc3c(cc2nc1O)OCO3 (stereo not drawn)
value_measured: > 66 µM (inactive)
--
compound: CCCNC(=O)c1nnsc1[S+]([O-])c1ccc(Cl)cc1 (stereo not drawn)
value_measured: > 66 µM (inactive)
--
compound: CCOC(=O)CNC(=O)CSc1nc(-c2cccc(C)c2)ns1
value_measured: > 66 µM (inactive)
--
compound: CCN(CC)Cc1cc(O)c(CN(CC)CC)cc1O
value_measured: > 66 µM (inactive)
--
compound: O=c1[nH]c2ccc(NC(=S)Nc3ccccc3Cl)cc2[nH]1
value_measured: > 66 µM (inactive)
--
compound: O=C(NC(=S)Nc1ccc(C(=O)N2CCOCC2)cc1)c1ccc([N+](=O)[O-])cc1
value_measured: > 66 µM (inactive)

* * *

assay: Shn3 3'UTR reporter inhibitors, dose response, cell-based, Clone20 osteoblasts, firefly luciferase, cherry-picked (AID 624132); assay type: functional;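 also: firefly luciferase luminescence from reporter carrying the Shn3 3'UTR in osteoblasts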
The source made the active and inactive calls.

molecule: C/C(Cl)=C\Cn1c(NCCc2ccccc2)nc2c1c(=O)n(C)c(=O)n2C
AC50: 283 nM (active)
//
molecule: CCN(CC)CCn1c(=N)n(CC(O)COc2cccc(C)c2)c2ccccc21 (centres undefined)
AC50: 4390 nM (active)
//
molecule: COc1c(CC=C(C)C)cc(C2CC(=O)c3c(O)cc(O)cc3O2)cc1CC=C(C)C (centres undefined)
AC50: 5420 nM (active)
//
molecule: O=C1C(Br)=C(c2ccccc2)C(c2ccccc2)=C1c1ccccc1
AC50: 460 nM (active)

* * *

Measured CC50, listed per entry.
assay: HEp-2 cell cytotoxicity, dose response, cytotoxicity control for RSV inhibitor project, HTS (AID 2410); format: functional; settings: human respiratory syncytial virus
Activity calls are given as the source filed them.

compound: O=C(N/N=C/c1ccc(O)cc1)Nc1cccc2nsnc12
CC50: > 50 µM (active)
//
compound: Cn1ncc(Cl)c1C(=O)Nc1ccc2c(c1)CCC2
CC50: 41.5 µM (active)
//
compound: COc1ccc(C(=O)/C=C/c2ccc(OC)c(Cn3nnc4ccccc43)c2)cc1
CC50: 12.1 µM (active)
//
compound: COc1ccc(-c2csc(NC(=O)CS(=O)(=O)c3ccccc3)n2)cc1
CC50: 20.4 µM (active)
//
compound: CCOC(=O)c1sc(NC(=O)CN2C(=O)NC3(CC(C)CC(C)(C)C3)C2=O)cc1C (stereo not given)
CC50: 14.9 µM (active)
